These measurements were taken from patent US10800734B2.

Type: in vitro ADME
Conditions: human, microsomes, 1 h, 1 μM, pH 7.4
PROPERTY: Percentage of Remaining or Converted Active Adamantane Compound (%)
Numbers only; they are read as %.

Prompt: Which Percentage of Remaining or Converted Active Adamantane Compound is reported for this compound? CCCCCCCCCCCC(=O)OCOC(=O)NC12CC3CC(C)(CC(C)(C3)C1)C2 [Compound 3]
Completion: 35.6

Prompt: Which Percentage of Remaining or Converted Active Adamantane Compound is reported for this compound? CC12CC3CC(C)(C1)CC(NC(=O)OCOC(=O)Cc1cccc4ccccc14)(C3)C2 [Compound 1]
Completion: 108

Prompt: Which Percentage of Remaining or Converted Active Adamantane Compound is reported for this compound? CC12CC3CC(C)(C1)CC(N)(C3)C2 [MJG, memantine]
Completion: 98

Prompt: Which Percentage of Remaining or Converted Active Adamantane Compound is reported for this compound? CCCCCCCCCCCCCCCC(=O)OCOC(=O)NC12CC3CC(C)(CC(C)(C3)C1)C2 [Compound 4]
Completion: 25.3

Prompt: Which Percentage of Remaining or Converted Active Adamantane Compound is reported for this compound? CC12CC3CC(C)(C1)CC(NC(=O)OCOC(=O)c1ccccc1)(C3)C2 [Compound 2]
Completion: 134

====

Test: In vivo pharmacokinetics after intramuscular administration in rats
Conditions: rat, im, solution, 17.5 mg/kg, memantine in plasma
Method: Legend format: tested compound/dose (mg/kg)/converted active adamantane compound, which is memantine. Analytical LC/MS/MS systems: Agilent 1200 Series vacuum degasser, dual-injection pump, orifice autosampler, column incubator, charged spray ionization (ESI) source, and Agilent G6430 three-stage quadrupole mass spectrometer. The quantitative analysis is performed in the MRM mode, with the following MRM conversion parameters: […]
PROPERTY: Cmax (ng/mL)
Numbers only; they are read as ng/mL.

Prompt: Which Cmax is reported for this molecule? CC12CC3CC(C)(C1)CC(N)(C3)C2 [MJG, memantine]
Completion: 1940

====

Assay: In vivo pharmacokinetics after intramuscular administration in rats
Conditions: rat, plasma, im, 17.5 mg/kg, solution, 17.5 mg/kg, memantine in plasma, read-out: T½ (converted)
PROPERTY: half-life

Prompt: Which half-life is reported for this compound? CC12CC3CC(C)(C1)CC(N)(C3)C2 [MJG, memantine]
Completion: ~4 h

====

So I've got a bunch of compounds here, and I need their Percentage of Remaining or Converted Active Adamantane Compound values.
Type: in vitro ADME
Conditions: human, microsomes, 2 h, 1 μM, pH 7.4
Numbers only; they are read as %.

Prompt: Which Percentage of Remaining or Converted Active Adamantane Compound is reported for this compound? CC12CC3CC(C)(C1)CC(NC(=O)OCOC(=O)c1ccccc1)(C3)C2
Completion: 118

Prompt: Which Percentage of Remaining or Converted Active Adamantane Compound is reported for this compound? CCCCCCCCCCCCCCCC(=O)OCOC(=O)NC12CC3CC(C)(CC(C)(C3)C1)C2
Completion: 34

Prompt: Which Percentage of Remaining or Converted Active Adamantane Compound is reported for this compound? CCCCCCCCCCCC(=O)OCOC(=O)NC12CC3CC(C)(CC(C)(C3)C1)C2
Completion: 35.6

Prompt: Which Percentage of Remaining or Converted Active Adamantane Compound is reported for this compound? CC12CC3CC(C)(C1)CC(NC(=O)OCOC(=O)Cc1cccc4ccccc14)(C3)C2
Completion: 101

Prompt: Which Percentage of Remaining or Converted Active Adamantane Compound is reported for this compound? CC12CC3CC(C)(C1)CC(N)(C3)C2 [MJG, memantine]
Completion: 98
